- system: human HSD1 (recombinant HSD1) (Homo sapiens, UniProt P28845)
- Sequence (P28845 whole entry): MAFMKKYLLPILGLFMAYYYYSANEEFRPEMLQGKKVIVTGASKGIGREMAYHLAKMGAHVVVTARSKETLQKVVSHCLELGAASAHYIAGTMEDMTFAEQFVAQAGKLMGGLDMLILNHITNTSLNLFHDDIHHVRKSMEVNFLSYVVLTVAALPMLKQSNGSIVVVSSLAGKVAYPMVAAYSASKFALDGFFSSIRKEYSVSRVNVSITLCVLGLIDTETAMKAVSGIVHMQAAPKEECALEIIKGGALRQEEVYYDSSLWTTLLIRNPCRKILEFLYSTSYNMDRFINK
- experiment summary: In vitro HSD1 activity inhibitory action, SPA of cortisone to cortisol conversion
- reported conditions: recombinant human HSD1 0.1 μg/ml, 500 μM NADPH, 16 nM 3H cortisone, room temperature 90 min, read-out: hHSD1 IC50
Structures can show the parent of a compound that is named as a salt.
measured parameter: IC50

Below are worked cases with known answers.
Query string: I would be grateful if you could share the reported IC50 for Cn1c(-c2ccc(C(=O)N3CCCCC3)cc2Cl)nnc1C1(c2ccccc2)CC1 .
Result string: 10 to 1000 nM

Query string: Try Cn1c(N2CCC(Oc3ncccc3Cl)CC2)nnc1C1(c2ccccc2)CC1 next.
Result string: < 10 nM

Report IC50 for every entry below.
1. Cn1c(N2CCc3ccccc3C2)nnc1C1(c2ccccc2)CC1
2. Cn1c(-c2ccc(NS(N)(=O)=O)cc2Cl)nnc1C1(c2ccccc2)CC1
3. Cn1c(N2CCC(NC(=O)OC(C)(C)C)CC2)nnc1C1(c2ccccc2)CC1
4. Cn1c(-c2ccc(N3CCOC3=O)cc2Cl)nnc1C1(c2ccccc2)CC1
5. COC(=O)C1CCN(c2ccc(-c3nnc(C4(c5ccccc5)CC4)n3C)c(Cl)c2)CC1
6. Cn1c(N2CCC(Oc3ccc(C(=O)O)cc3)CC2)nnc1C1(c2ccccc2)CC1
7. Cn1c(-c2ccc(Cl)cc2Cl)nnc1C1(c2ccc(F)cc2)CCCC1

Result string:
1. < 10 nM
2. < 10 nM
3. 10 to 1000 nM
4. < 10 nM
5. < 10 nM
6. 10 to 1000 nM
7. < 10 nM

Report IC50 for every entry below.
1. Cn1c(C2CCN(c3c(Cl)cncc3Cl)CC2)nnc1C1(c2ccc(Cl)cc2)CC1 [Ex. 1-1, hydrochloride]
2. CN(C)C(=O)c1cccc(OC2CCN(c3nnc(C4(c5ccccc5)CC4)n3C)CC2)c1
3. CC(=O)Nc1ccc(-c2nnc(C3(c4ccccc4)CC3)n2C)c(Cl)c1

Result string:
1. 10 to 1000 nM
2. 10 to 1000 nM
3. < 10 nM
